# Target Entity: T1, FAM-tat peptide (UniProt P04608, also: FAM label, position not given here)
# T1 chain: AAARKKRRQRRRAAA
# Measurement Description: SPR
No end group written: not given here.
Measurement Name: Kd (nM)

| Binder | Data Value |
| --- | --- |
| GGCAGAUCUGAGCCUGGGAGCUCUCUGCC (structured_RNA) [biotin-TAR RNA] | 380 |
